Reported Mean Minimum Surface Tension, relative peptide concentration 1/16 by item:
test: Relative surface activity by dilution studies on the modified Wilhelmy Balance-Langmuir Trough; assay type: physicochemical; settings: 1/16 dilution of equimolar stock with lipid mixture; 675 ug phospholipid
No end group written: not given here.
measured.attribute: Mean Minimum Surface Tension, relative peptide concentration 1/16 (mN/m)

[
  {
    "substance": "SP-B(66-78): synthesized SP-B peptide fragment, positions 66-78, 13 amino acids (LPQLVCRLVLRCS; not fully specified; cysteine pairing not given here; UniProt P07988 266-278, looked up, fragment)",
    "endpoint.value": 22.0
  },
  {
    "substance": "SP-B(66-78)diLys: SP-B positions 66-78, cysteines 71 and 77 replaced with lysine (LPQLVKRLVLRKS; Pulmonary surfactant-associated protein B; UniProt P07988 266-278, looked up, variant C71K C77K)",
    "endpoint.value": 23.0
  },
  {
    "substance": "SP-B(58-78)diAla: SP-B positions 58-78, cysteines 71 and 77 replaced by alanine (LDTLLGRMLPQLVARLVLRAS; Pulmonary surfactant-associated protein B; UniProt P07988 258-278, looked up, variant C71A C77A)",
    "endpoint.value": 24.1
  },
  {
    "substance": "SP-B(53-78): replica of the 26 residue carboxyl terminal region of native human SP-B (YSVILLDTLLGRMLPQLVCRLVLRCS; Pulmonary surfactant-associated protein B; UniProt P07988 253-278, looked up, fragment)",
    "endpoint.value": 14.5
  }
]

----------
Reported Surface Tension Minimum by item:
assay: Dynamic surface tension versus compressed surface area, modified Wilhelmy Surface Balance (Langmuir Trough); assay type: physicochemical; conditions: peptide 0.5 mg/ml (~2% of solids) in DPPC:PG:PA 68:22:9; 675 ug phospholipid on 445 sq. cm trough; recorded during seven complete cycles
No end group written: not given here. *: point of attachment. Acm = CC(=O)NC*

[
  {
    "substance": "SP-B(69-78): synthesized SP-B peptide fragment, positions 69-78, 10 amino acids (LVCRLVLRCS; Pulmonary surfactant-associated protein B; UniProt P07988 269-278, looked up, fragment)",
    "result.units": "dynes/cm",
    "Surface Tension Minimum": 6.3
  },
  {
    "substance": "SP-B(66-78)diLys: SP-B positions 66-78, cysteines 71 and 77 replaced with lysine (LPQLVKRLVLRKS; Pulmonary surfactant-associated protein B; UniProt P07988 266-278, looked up, variant C71K C77K)",
    "result.units": "dynes/cm",
    "Surface Tension Minimum": 2.6
  },
  {
    "substance": "SP-B(53-78)diAcm: SP-B positions 53-78, cysteines 71 and 77 capped with S-acetamidomethyl (Acm) groups (YSVILLDTLLGRMLPQLVC(Acm)RLVLRC(Acm)S; UniProt P07988 253-278, looked up, fragment)",
    "result.units": "dynes/cm",
    "Surface Tension Minimum": 0.1
  },
  {
    "substance": "SP-B(53-78): replica of the 26 residue carboxyl terminal region of native human SP-B (YSVILLDTLLGRMLPQLVCRLVLRCS; Pulmonary surfactant-associated protein B; UniProt P07988 253-278, looked up, fragment)",
    "result.units": "dynes/cm",
    "Surface Tension Minimum": 1.1
  },
  {
    "substance": "SP-B(58-78)diAla: SP-B positions 58-78, cysteines 71 and 77 replaced by alanine (LDTLLGRMLPQLVARLVLRAS; Pulmonary surfactant-associated protein B; UniProt P07988 258-278, looked up, variant C71A C77A)",
    "result.units": "dynes/cm",
    "Surface Tension Minimum": 0.2
  },
  {
    "substance": "SP-B(66-78): synthesized SP-B peptide fragment, positions 66-78, 13 amino acids (LPQLVCRLVLRCS; not fully specified; cysteine pairing not given here; UniProt P07988 266-278, looked up, fragment)",
    "result.units": "dynes/cm",
    "Surface Tension Minimum": 0.7
  }
]

----------
assay: Pulsating Bubble Surfactometer (PBS) surface tension; format: physicochemical; conditions: after 5 minutes pulsation (100 cycles); 1 mg/ml phospholipid, peptide 2% of phospholipids; 0.15M NaCl; 37° C.; 20 cycles/minute; SD in parenthesis
No end group written: not given here. *: point of attachment. Acm = CC(=O)NC*
Reported Surface tension Minimum (minimum bubble size) by item:
measured.attribute: Surface tension Minimum (minimum bubble size)

[
  {
    "substance": "SP-B(53-78): replica of the 26 residue carboxyl terminal region of native human SP-B (YSVILLDTLLGRMLPQLVCRLVLRCS; Pulmonary surfactant-associated protein B; UniProt P07988 253-278, looked up, fragment)",
    "endpoint.value": "1.5 (0.6) dyne/cm"
  },
  {
    "substance": "SP-B(66-78): synthesized SP-B peptide fragment, positions 66-78, 13 amino acids (LPQLVCRLVLRCS; not fully specified; cysteine pairing not given here; UniProt P07988 266-278, looked up, fragment)",
    "endpoint.value": "9.4 (1.4) dyne/cm"
  },
  {
    "substance": "SP-B(53-78)diAcm: SP-B positions 53-78, cysteines 71 and 77 capped with S-acetamidomethyl (Acm) groups (YSVILLDTLLGRMLPQLVC(Acm)RLVLRC(Acm)S; UniProt P07988 253-278, looked up, fragment)",
    "endpoint.value": "4.1 (3.1) dyne/cm"
  },
  {
    "substance": "SP-B(66-78)diLys: SP-B positions 66-78, cysteines 71 and 77 replaced with lysine (LPQLVKRLVLRKS; Pulmonary surfactant-associated protein B; UniProt P07988 266-278, looked up, variant C71K C77K)",
    "endpoint.value": "1.8 (0.5) dyne/cm"
  },
  {
    "substance": "SP-B(58-78)diAla: SP-B positions 58-78, cysteines 71 and 77 replaced by alanine (LDTLLGRMLPQLVARLVLRAS; Pulmonary surfactant-associated protein B; UniProt P07988 258-278, looked up, variant C71A C77A)",
    "endpoint.value": "7.5 (1.2) dyne/cm"
  },
  {
    "substance": "SP-B(69-78): synthesized SP-B peptide fragment, positions 69-78, 10 amino acids (LVCRLVLRCS; Pulmonary surfactant-associated protein B; UniProt P07988 269-278, looked up, fragment)",
    "endpoint.value": "27.3 (0.5) dyne/cm"
  }
]

----------
Reported Mean Minimum Surface Tension, relative peptide concentration Equimolar by item:
Assay: Relative surface activity by dilution studies on the modified Wilhelmy Balance-Langmuir Trough
Assay type: physicochemical
Details: equimolar to 0.5 mg/mL SP-B(53-78); 675 ug phospholipid, 445 sq. cm trough
Protocol: For the purpose of this comparison "surface activity" is defined as follows: For any given peptide concentration, the admixture is required to result in a minimum dynamic surface tension of less than 10 dynes/cm for each of seven consecutive expansion/compression cycles. Initially each of the admixtures was formulated so as to contain an equal number of moles of the individual peptide as is contained in a 0.5 mg/mL admixture of SP-B(53-78). […]
No end group written: not given here.
measured.attribute: Mean Minimum Surface Tension, relative peptide concentration Equimolar (mN/m)

[
  {
    "substance": "SP-B(66-78): synthesized SP-B peptide fragment, positions 66-78, 13 amino acids (LPQLVCRLVLRCS; not fully specified; cysteine pairing not given here; UniProt P07988 266-278, looked up, fragment)",
    "result.units": "mN/m",
    "endpoint.value": 0.6
  },
  {
    "substance": "SP-B(53-78): replica of the 26 residue carboxyl terminal region of native human SP-B (YSVILLDTLLGRMLPQLVCRLVLRCS; Pulmonary surfactant-associated protein B; UniProt P07988 253-278, looked up, fragment)",
    "result.units": "mN/m",
    "endpoint.value": 0.7
  },
  {
    "substance": "SP-B(66-78)diLys: SP-B positions 66-78, cysteines 71 and 77 replaced with lysine (LPQLVKRLVLRKS; Pulmonary surfactant-associated protein B; UniProt P07988 266-278, looked up, variant C71K C77K)",
    "result.units": "mN/m",
    "endpoint.value": 2.5
  },
  {
    "substance": "SP-B(58-78)diAla: SP-B positions 58-78, cysteines 71 and 77 replaced by alanine (LDTLLGRMLPQLVARLVLRAS; Pulmonary surfactant-associated protein B; UniProt P07988 258-278, looked up, variant C71A C77A)",
    "result.units": "mN/m",
    "endpoint.value": 0.0
  }
]
